Where do the numbers come from? From patent US20230348603A1.

experimental.target: T1, Human VSIG4-L-CHO (human VSIG4 long isoform on CHO-K1 cells) (human, UniProt Q9Y279 20-399)
T1 construct: also called hVSIG4-L (flow cytometry)
T1 sequence: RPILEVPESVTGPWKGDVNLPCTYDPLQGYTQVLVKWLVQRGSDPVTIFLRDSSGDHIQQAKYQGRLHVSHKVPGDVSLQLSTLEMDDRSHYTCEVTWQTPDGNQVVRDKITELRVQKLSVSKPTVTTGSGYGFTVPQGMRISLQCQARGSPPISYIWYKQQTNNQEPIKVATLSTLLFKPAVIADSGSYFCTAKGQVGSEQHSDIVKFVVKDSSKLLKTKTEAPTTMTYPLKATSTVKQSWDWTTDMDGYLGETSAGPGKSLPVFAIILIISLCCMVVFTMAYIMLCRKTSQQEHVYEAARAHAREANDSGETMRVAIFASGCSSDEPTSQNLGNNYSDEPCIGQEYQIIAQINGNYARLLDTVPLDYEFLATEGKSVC
test.name: flow cytometry (FJB), 200 nM mAb, huVSIG4-L CHO-K1 cells
result.type: Binding (200 nM) MFI
Could you give the number and then its unit, please?

Reference set (4 entries):
12A08 mouse/human chimeric IgG4 (S228P) kappa (antibody, V domains shown) VH: EVMLVESGGGLVKPGGSLKLSCAASGFTFDDFYMYWVRQTPEKRLEWVASISDGGTYTYYPDSVKGRFTISRDNAKNTLYLQLSSLKSEDTAMYYCARGVDKYYYAMDYWGQGTSVTVSS VL: QILLTQSPAIMSASPGEKVTITCSASSSVSYMHWFQQKPGTSPKLWIYSTSNLASGVPARFSGSGSGTSYSLTISRMEAEDAATYYCQQRSSYPLTFGAGTKLELKR : 121000 MFI
14D12 mouse/human chimeric IgG4 (S228P) kappa (antibody, V domains shown) VH: QIQLVQSGPELKKPGETVKISCKASGYTFTNYGMNWVKQTPGKGLKWMGLINTYTGEPTYADDFKGRFAFSLETSASTAYLQINNLKNEDMATYFCARERIYGYLHYFDYWGQGTTLTVSS VL: DVVMTQTPASLAVSLGQRATISCKASQSVDYDGDSYMNWYQQKPGQPPKLLIYAASNLESGIPARFSGSGSGTDFTLNIHPVEEEDAATYYCQQSNEDPRTFGGGTKLEIKR : 36400 MFI
15C04 mouse/human chimeric IgG4 (S228P) kappa (antibody, V domains shown) VH: QIQLQESGPSLVRPSQTLSLTCSVTGDSITSGYWNWIRKFPGDKLEYLGYISYSGFTYYNPSLKSRISITRDTSKNQYYLQLNSVTTEDTATYYCASSYYGSSLGFPYWGQGTLVTVSA VL: DVVMTQTPLSLPVSLGDQASISCRSSQSLVHSNGNTYLHWYLQKPGQSPKLLIYKVSNRFSGVPDRFSGSGSGTDFTLKISRVEAEDLGVYFCSQSTHVPWTFGGGTKLEIKR : 53200 MFI
12A12 mouse/human chimeric IgG4 (S228P) kappa (antibody, V domains shown) VH: QVQMKQSGAELAKPGASVKMSCKASGYTFTNYWMHWVKQRPGQGLEWIGYINPSTGYTDYNQNFKDRATLTADKSSSTAYMQLSSLTSEDSAVYYCIRGSDYYGRDYWGQGTTLTVSS VL: DIQMTQTTSSLSASLGDRVTISCRASQDISNYLNWYQQKPDGTLKLLIYYTSRLHSGVPSRFSGSGSGTDYSLTISNLEQEDIATYFCRQGNTLPWTFGGGTKLEIKR : 106000 MFI

Would you kindly look at the next entry?
Ask: Please give the measured Binding (200 nM) MFI for this binder: 15C03 mouse/human chimeric IgG4 (S228P) kappa (antibody, V domains shown) VH: EVKLLESGPGLVKPSQSLSLTCTVTGYSITSDYAWNWIRQFPGNKLEWMGYISYSGSTRYNPSLKSRISITRDTSNNQFFLQLNSVTTEDTATYYCARSGYAAMDYWGQGTSVTVSS VL: ENVLTQSPAIMSASPGEKVTMTCRASSSVSSSYLHWYQQKSGASPKLWIYSTSNLASGVPARFSGSGSGTSYSLTISSVEAEDAATYYCQQYSGYPLTFGSGTKLEIKR
Reply: 48900 MFI
